system: MDA-MB-231 breast; assay: NCI-60 one-dose screen, 48 h (100 = growth as untreated, 0 = no growth, -100 = all killed); settings: 10 µM unless noted
About 83,000 compounds went through this panel and 20% of them were active in at least one assay; those are over-represented in the sample as a whole.

# COMPOUND, MEASURED_ON, growth, %
data = [
    ("O=C(O)CNC(=O)C1(N2C(=O)c3ccccc3C2=O)CCCC1", "MDA-MB-231 breast", 101),
    ("N/C(=N\\c1nc2ccccc2s1)NC(=O)Nc1ccccc1Cl", "MDA-MB-231 breast", 42.1),
    ("CN[C@@H]1C(OC2[C@H](O[C@H]3[C@H](O)[C@@H](O)[C@H](N=C(N)N)[C@@H](O)[C@@H]3N=C(N)N)OC(C)[C@]2(O)CO)OC(CO)C(O)C1O (stereo partly specified)", "MDA-MB-231 breast", 104),
    ("Cc1[nH]ccc2cc3nc4ccccc4c3cc12", "MDA-MB-231 breast", 26.3),
    ("CCNCCCn1c2c(c3ccc(F)cc3c1=O)C(=O)c1cc(OC)cnc1-2", "MDA-MB-231 breast", 3.91),
    ("Cc1sc2nc(N3CCCCC3)[nH]c(=O)c2c1C", "MDA-MB-231 breast", 99.4),
    ("CCCCCCCCCCCCCCCCNC(=O)Nc1ccc2ccccc2c1", "MDA-MB-231 breast", 98.1),
    ("O=C(COc1cccc(/C=C2\\Cc3ccccc3C2=O)c1)c1ccc(Cl)cc1", "MDA-MB-231 breast", 84.1),
    ("Cn1cnc([N+](=O)[O-])c1Sc1nc(N)nc2nc[nH]c12", "MDA-MB-231 breast", 29.6),
    ("Nc1ccc2c(c1)C(=O)c1cc(Cl)c(Cl)cc1-2", "MDA-MB-231 breast", 79.1),
    ("CCCCc1ccc(C(N)=O)nc1", "MDA-MB-231 breast", 102),
]

---

tested on: OVCAR-3 ovarian; assay: NCI-60 one-dose screen, 48 h; settings: 10 µM unless noted
The panel holds about 83,000 compounds, 20% with a hit somewhere; the sample as a whole holds those more often. The source made the active and inactive calls. How the source made its calls: active means growth percent below 10; inactive means the rest.
Possible outcomes: active, inactive

# COMPOUND, GROUP
rows = [
    ("OCCN1CCN(CCCN2c3ccccc3Sc3ccc(C(F)(F)F)cc32)CC1", "inactive"),
    ("CC(C)CNc1nc(N=[N+]=[N-])nc(NCC(C)C)n1", "inactive"),
    ("N/C(=N\\c1nc2ccccc2s1)NC(=O)Nc1ccccc1Cl", "active"),
    ("CC(=O)Nc1c(Cl)cc2c(c1Cl)Cc1cc([N+](=O)[O-])ccc1-2", "inactive"),
    ("O=C1C(=O)c2c(nc3ccc(Cl)cn23)-c2ccccc21", "active"),
    ("CCSc1nc(-c2cccs2)n2nc(-c3ccco3)cc2n1", "inactive"),
    ("CC(=O)[C@H]1CC[C@H]2[C@@H]3C[C@H](C)C4=CC(=O)CC[C@]4(C)[C@H]3C(=O)C[C@]12C", "inactive"),
    ("O=C(Oc1cccc2ccccc12)c1ccccc1C(=O)c1ccccc1", "inactive"),
    ("COC(=O)Nc1ccc2ccc3c(NC(=O)OC)ccc4ccc1c2c43 (tested in a mixture with another compound)", "inactive"),
    ("O=C(O)CCNS(=O)(=O)c1ccc(-c2ccccc2)cc1", "inactive"),
]

---

tested on: UO-31 renal; assay: NCI-60 one-dose screen, 48 h; conditions: 10 µM unless noted
Compounds without any hit were thinned out: in the full panel of roughly 83,000, 20% have a hit. Activity calls are given as the source filed them. The calls were made as follows: active = growth percent below 10; inactive = the rest.
Classes used: Yes for active, No for inactive

# COMPOUND, GROUP
rows = [
    ("Cc1cn(C(C=O)OC(C=O)CO)c(=O)[nH]c1=O (stereo not drawn)", "No"),
    ("CCNCCCn1c2c(c3ccc(F)cc3c1=O)C(=O)c1cc(OC)cnc1-2", "Yes"),
    ("N#Cc1c(-c2ccccc2)cc(-c2ccccc2)n(CCCCCCC(=O)O)c1=O", "No"),
    ("CCC(=O)Nc1cc2c(cc1Cl)-c1ccccc1C2", "No"),
    ("CCCCN=C(N)c1ccc(OCCSCCOc2ccc(C(N)=NCCCC)cc2)cc1", "No"),
    ("COc1ccc(C(=O)/C=C/c2ccc(C)cc2)cc1OC", "Yes"),
    ("CC[C@H]1CN2CCc3cc(OC)c(OC)cc3C2C[C@@H]1CC1NCCc2cc(OC)c(OC)cc21 (stereo partly drawn)", "Yes"),
    ("N/C(=N\\c1nc2ccccc2s1)NC(=O)Nc1ccccc1Cl", "No"),
    ("C=C1CCC2C(C)(COC(=O)CC)C(OC(=O)CC)CCC2(C)C1C/C=C1/C(=O)OCC1OC(=O)CC (stereo not drawn)", "Yes"),
    ("COc1cc2c(cc1OC)C(CC1(O)CCCCC1)N(S(=O)(=O)c1ccc(C)cc1)CC2 (stereo not drawn)", "No"),
    ("COc1ccc(C2CC(c3ccc4c(c3)OCO4)=NN2C=O)cc1 (stereo not drawn)", "No"),
    ("O=C(NCCNC(=O)Oc1cccc2ccccc12)Oc1cccc2ccccc12", "No"),
    ("COc1ccc(C2=NN(C(C)=O)C(c3c(C)nn(-c4ccccc4)c3N3CCOCC3)C2)cc1 (stereo not drawn)", "No"),
    ("Cc1ccc(-c2c3c(N)nc(-c4ccncc4)nc3nc3c2c(C)nn3-c2ccccc2)cc1", "No"),
    ("Cc1sc2nc(NCCc3cccs3)[nH]c(=O)c2c1C", "No"),
    ("CC(=O)c1ccc(NS(=O)(=O)c2ccc([N+](=O)[O-])cc2)cc1", "No"),
    ("CCCCCCC(CC#N)(CCC)CCCC (stereo not drawn)", "No"),
    ("COc1ccc(CNC(=O)c2c(C)n([O-])c3ccc(OC)cc3[n+]2=O)cc1", "No"),
    ("O=C1/C(=C/c2cccc(Cl)c2)CCc2ccccc21", "No"),
    ("COC(=O)[C@H](Cc1cnc[nH]1)NC(=O)[C@@H](NC(=O)Nc1cc(C(F)(F)F)cc(C(F)(F)F)c1)C(C)C", "Yes"),
    ("CO[C@H]1/C=C/O[C@@]2(C)Oc3c(C)c(O)c4c(O)c(c(/C=N/N5C(C)CN(Cc6ccc(C#N)cc6)CC5C)c(O)c4c3C2=O)NC(=O)/C(C)=C\\C=C\\[C@H](C)[C@H](O)[C@@H](C)[C@@H](O)[C@@H](C)[C@H](OC(C)=O)[C@@H]1C (stereo partly drawn)", "No"),
    ("O=c1oc2c(cc1-c1ccc([N+](=O)[O-])cc1)C(O)Oc1ccccc1-2 (stereo not drawn)", "No"),
    ("C=CCNC(=O)/C(=C/c1cccc([N+](=O)[O-])c1)NC(=O)c1ccccc1", "No"),
    ("NC(=O)NC1(C(=O)O)CCCC1", "No"),
    ("COc1ccc2c(=O)c(OC)c(-c3cc(OC)c(OC)c(OC)c3)oc2c1", "Yes"),
    ("COCCCNS(=O)(=O)c1ncnc2nc[nH]c12", "No"),
    ("N#Cc1c(-c2ccc(F)cc2)n2c(nc1=O)SC(=O)C2=O", "No"),
    ("CC(=O)N1N=C(c2ccc(Nc3nc(NCCO)nc(NCCO)n3)cc2)CC1c1ccc(Cl)cc1 (stereo not drawn)", "No"),
    ("CC(C)=CCCC(C)c1ccc(C)c2c1OCN(CC1CCNCC1)C2 (stereo not drawn)", "No"),
    ("O=[N+]([O-])c1cc([N+](=O)[O-])c(N2CCCC2)cc1NN=C(c1ccc(O)cc1)c1ccc(O)cc1", "Yes"),
    ("C[C@H]1c2cccc(O)c2C(O)=C2C(=O)[C@]3(O)C(O)=C(C(N)=O)C(=O)[C@@H](N(C)C)[C@@H]3[C@@H](O)[C@@H]21", "No"),
    ("O=C(NC1CCCCC1)c1ccc(Nc2ncnc3c2cnn3-c2ccccc2)cc1", "No"),
    ("Cc1c2oc3c(C)ccc(C(=O)OC(C)C4NC(=O)C(C(C)C)N(C)C(=O)CN(C)C(=O)C5CCCN5C(=O)C(C(C)C)NC4=O)c3nc-2c(C(=O)OC(C)C2NC(=O)C(C(C)C)N(C)C(=O)CN(C)C(=O)C3CCCN3C(=O)C(C(C)C)NC2=O)c(N)c1=O (stereo not drawn)", "Yes"),
    ("Nc1nc(Nc2ccccc2SSc2ccccc2Nc2nc(N)nc(C(Cl)(Cl)Cl)n2)nc(C(Cl)(Cl)Cl)n1", "Yes"),
    ("CCN1CCN(c2nc(NNC(=O)Cc3ccccc3)nc(N3CCN(C(c4ccccc4)c4ccccc4)CC3)n2)CC1", "No"),
    ("Cc1cc(-c2ccccc2)cc(C)n1", "No"),
    ("O=Cc1ccccc1C(=O)O", "No"),
    ("O=C(O)c1ccc(CNS(=O)(=O)c2ccc3ccccc3c2)cc1", "No"),
]
